Assay Name: Pantoprazole (proton pump inhibitor) DDI study, plasma pharmacokinetics
Assay type: in vivo, human
Conditions: both sexes, human, plasma, po, ripretinib 50 mg single oral dose + pantoprazole 40 mg QD, fasting, healthy participants (N = 23); read-out: AUC0–t, arithmetic mean (SD)
Property: AUC(0-t)

>  <Smiles Text>
CCn1c(=O)c(-c2cc(NC(=O)Nc3ccccc3)c(F)cc2Br)cc2cnc(NC)cc21

>  <Result>
4220 ng·h/mL

$$$$

###

Assay Name: Itraconazole (strong CYP3A inhibitor) DDI study, plasma pharmacokinetics
Assay type: in vivo, human
Conditions: both sexes, human, plasma, po, ripretinib 50 mg single oral dose + itraconazole 200 mg QD, fasting, healthy participants (N = 20); read-out: AUC0–∞, geometric mean (CV%)

>  <Smiles Text>
CCn1c(=O)c(-c2cc(NC(=O)Nc3ccccc3)c(F)cc2Br)cc2cnc(NC)cc21

>  <AUC(0-inf) (ng·h/mL)>
8310

$$$$
